This collection of values is drawn from paper PMC6753678.

Below, each entry is listed alongside its reported Unified cytotox.
system: HepG2 cells; test: HepG2 cytotoxicity assay; settings: HepG2 values of the three screens unified
Value expressed in µM; do not type the unit.

CCCCOc1cc(OC)c2ccccc2c1CCNCCCCNCCc1c(OCCCC)cc(OC)c2ccccc12.CS(=O)(=O)O : 2.49
Cl.O=C1CSc2ccc(CNC3CCN(CCc4c(Cl)cnc5ccc(Cl)cc45)CC3)nc2N1 : 17.78
Cc1[nH]c(C)c(-c2ccc(OCc3ccc(OC(F)(F)F)cc3)nc2)c(=O)c1Cl : 100.00
Cn1nc(C(F)(F)F)c(-c2ccc(Br)cc2)c1NC(=O)Cc1ccccc1F : 100.00

Next item in the queue.
Lookup: What does the record list as Unified cytotox for Cl.NCC1(c2nc(-c3ccc(Cl)c(O)c3)c(-c3ccncc3)[nH]2)CCCCC1 ?
Found: 29.34

###

tested on: HepG2 cells; test: HepG2 cytotoxicity assay; conditions: unified HepG2 value across the three screens
measuredParameter: Unified cytotox (µM)
Value expressed in µM; do not type the unit.

Cc1cc(=O)c2cc(-c3ccc(OC(F)(F)F)cc3)ccc2[nH]1 : 100.00
O=C(Nc1ccccc1)Nc1ccc(-n2ccc(C(F)(F)F)n2)cc1 : 100.00
O=C(NCc1ccco1)c1ccc(CN2CCN(C(c3ccccc3)c3ccccc3)CC2)cc1 : 52.48

Lookup: Any idea what Unified cytotox came out for Cc1ccc2c(=O)c3cc(C)ccc3[nH]c2c1 on HepG2 cells?
Found: 63.83

Lookup: Now consider CCOc1ccc2[nH]c(C)cc(=NN=Cc3cccnc3)c2c1 and answer again.
Found: 15.14

Lookup: Now consider CCNC(=O)Nc1ccc(-c2cnc(N)c(-c3nc4ccc(OC)cc4[nH]3)c2)cc1 and answer again.
Found: 6.68

Lookup: Now consider C[C@@H]1C[C@@H]([C@H](O)CC2CC(=O)NC(=O)C2)C(=O)[C@@H](C)C1 and answer again.
Found: 100.00

Lookup: Now consider CC[C@@]1(O)C(=O)OCc2c1cc1n(c2=O)Cc2c-1nc1cc3c(cc1c2CN1CCN(C)CC1)OCCO3.Cl and answer again.
Found: 1.26

###

Below, each entry is listed alongside its reported % inhibition, Replicate A.
test system: P. berghei ookinete development; settings: primary screen at 1 μM, replicate A
Value expressed in %; do not type the unit.

Example entries begin here.
COc1ccc2ncc(F)c(CCN3CCC(NCc4cc(C)c5c(c4)OCCO5)CC3)c2n1.Cl [TCMDC-136209] : 56.92
COc1ccc2nc3cc(Cl)ccc3c(NCCO)c2c1.Cl [TCMDC-124272] : 66.85
Cc1ccc(Nc2nc(N/N=C/c3cccc(O)c3)nc(Nc3ccc([N+](=O)[O-])cc3)n2)cc1C [TCMDC-124125] : 68.98

Next item in the queue.
Lookup: What does the record list as % inhibition, Replicate A for CCc1ccc(NC(=O)c2ccc(CN3CCCN(CC4CCCCC4)CC3)cc2)cc1.O=C(O)C(F)(F)F [TCMDC-136437] ?
Found: 48.61

###

System: HepG2 cells
Experiment: HepG2 cytotoxicity assay
Conditions: read-out: HepG2 cytotoxicity assay IC50; dose response confirmation
Method: Briefly, HepG2 cells were seeded onto compound-treated 384 well plates at a density of 2,500 cells per well in Minimal Essential Medium (MEM) plus 10% fetal bovine serum and 1% non-essential amino acids solution (NEAA). […] Cell viability was then measured in a fluorescent plate reader and percent inhibition calculated with respect to positive and negative controls.
measuredParameter: pIC50
Hey, just a heads up that pIC50 is the negative log base 10 of the concentration in molar.

CC1CN(Cc2cccc(C#N)c2)CCN1c1ccc(NC(=O)c2cccs2)cc1.O=C(O)C(F)(F)F (stereo not drawn) : 5.52
Cc1cc(=O)c(-c2ccc(Oc3cccc(Cl)c3)cc2)c(C)[nH]1 : 5.43
CCN(CC)CCCNc1c2ccccc2nc2ccccc12.Cl : 4.74
CC1CN(Cc2ccccc2)CCN1c1ccc(NC(=O)c2cccs2)cc1.O=C(O)C(F)(F)F (stereo not drawn) : 4.24
CCCC(C)n1ccc2c3c(N)nc(N)nc3ccc21 (stereo not drawn) : 7.52
Cc1cc(C(=O)OCC(=O)Nc2c(C)n(C)n(-c3ccccc3)c2=O)c(C)n1-c1ccc(F)cc1 : 4.71
Nc1nc(N)c2c(Cl)c(N3CCOCC3)ccc2n1 : 8.06
CCc1cc2c3c(N)nc(N)nc3ccc2n1C(C)CC (stereo not drawn) : 8.77
Cc1cc(C(=O)NC2CCN(CC3(c4ccccc4)CCCCC3)CC2)on1 : 4.87
COc1cc(-c2nc(C(C)(C)CN)[nH]c2-c2ccncc2)ccc1Br.Cl : 4.40

Lookup: Any idea what pIC50 came out for CCc1cc2c(Sc3nc4ccccc4[nH]3)ncnc2s1 on HepG2 cells?
Found: 4.00

Lookup: Now consider COc1ccc(C#Cc2ccc(-c3c(C)[nH]c(C)c(Cl)c3=O)cc2)cc1 and answer again.
Found: 4.00

Lookup: Now consider CC1(C)NC(N)=NC(=N)N1OCOc1ccc(Cl)cc1.Cl and answer again.
Found: 7.12

Lookup: Now consider CCC(C)(C)c1ccc2nc(N)nc(N)c2c1C and answer again.
Found: 8.77

Lookup: Now consider CCCOc1cc(OCCC)cc(-c2cc(=O)c3ccccc3[nH]2)c1 and answer again.
Found: 4.00

###

test system: HepG2 cells; test: HepG2 cytotoxicity assay; settings: unified HepG2 cytotoxicity across the three screens
measuredParameter: Unified cytotox (µM)
Value expressed in µM; do not type the unit.

CC(C)(C)c1ccc(CNC(=O)c2cc(CNC3CCNCC3)ccc2O)cc1 : 13.96
Nc1cc2c(C3CCN(CC4CCN(C(=O)/C=C/c5ccc(Cl)c(Cl)c5)CC4)CC3)c[nH]c2cn1 : 6.24
CC(=O)Nc1ccc2[nH]cc(C3CCN(CC4CCN(C(=O)/C=C/c5ccc(Cl)c(Cl)c5)CC4)CC3)c2n1 : 12.59
COc1ccc(NC(=O)c2cccc(Br)c2)cc1N1CCN(CCCCCCCN2CCN(c3cc(NC(=O)c4cccc(Br)c4)ccc3OC)CC2)CC1.Cl : 6.03
Nc1ccc2[nH]cc(C3CCN(CC4CCN(C(=O)/C=C/c5ccc(Cl)c(Cl)c5)CC4)CC3)c2n1 : 5.89

Lookup: What does the record list as Unified cytotox for Cc1c(N=O)cc(C(C)(C)C)c(O)c1C(=O)Nc1ccc([N+](=O)[O-])cc1Cl ?
Found: 1.78

Lookup: Now consider COc1ccc(NC(=O)c2ccc(OCCCCCCCOc3ccc(C(=O)Nc4ccc(OC)c(N5CCN(C)CC5)c4)cc3)cc2)cc1N1CCN(C)CC1.O=C(O)C(=O)O and answer again.
Found: 4.43

Lookup: Now consider CC(C)Cn1cc(C2CCN(CCN3CCC(CNC(=O)c4ccc(-c5ccc(C#N)cc5)cc4)CC3)CC2)c2ccccc21 and answer again.
Found: 4.79

Lookup: Now consider CC(C)(CNC(=O)[C@@H]1CCCCN1)c1nc(-c2ccc(Cl)c(O)c2)c(-c2ccncc2)[nH]1.Cl and answer again.
Found: 38.91

Lookup: Now consider CN1CCC=C(C(=O)NCC(C)(C)c2nc(-c3ccc(Cl)c(O)c3)c(-c3ccncc3)[nH]2)C1.Cl and answer again.
Found: 13.36

Lookup: Now consider CC(=O)Nc1ccc2[nH]cc(C3CCN(CC4CCC(NC(=O)/C=C/c5ccc(Cl)c(Cl)c5)CC4)CC3)c2n1 (centres unmarked) and answer again.
Found: 13.49

Lookup: Now consider CN1CCN(c2cc3c(cc2Cl)CCN3C(=O)Nc2ccc(NC(=O)c3ccc(C(F)(F)F)cc3)cc2)CC1.Cl and answer again.
Found: 3.99

Lookup: Now consider O=C(NC1CCN(CCN2CCC(c3c[nH]c4ccccc34)CC2)CC1)c1ccc(-c2ccc(C(F)(F)F)cc2)cc1 and answer again.
Found: 4.68

Lookup: Now consider CCCCCCCN1CC[C@@H](CCCc2ccnc3ccc(OC)cc23)[C@@H](CNC)C1.O=C(O)C(=O)O and answer again.
Found: 5.89

###

system: P. falciparum late stage (stages IV-V) gametocytes; assay: P. falciparum late stage gametocyte ATP depletion assay (Pf GC-ATP); details: 1: YES; 0: NO; >10-fold selectivity over cytotoxicity
measuredParameter: Is compound selective in assay? Pf GC-ATP active?

Example entries begin here.
CC(C)CNCc1ccc(-c2cccc(CN(C(=O)NC3CCCCC3)C3CCN(Cc4ccccc4)CC3)c2)cc1.O=C(O)C(F)(F)F : 0 (0: NO)
Cc1cccc2[nH]cc(C3CCN(CC4CCC(NC(=O)/C=C/c5ccc(Cl)c(Cl)c5)CC4)CC3)c12.Cl (stereo not shown) : 0 (0: NO)
COc1cc2ccccc2c(OC)c1CNCCCCCCNCc1c(OC)cc2ccccc2c1OC.CS(=O)(=O)O : 1 (1: YES)

Lookup: What does the record list as Is compound selective in assay? Pf GC-ATP active? for COc1ccc2nc3cc(Cl)ccc3c(NCCN3CCN(C)CC3)c2c1 ?
Found: 1 (1: YES)
